test system: SK-MEL-2 melanoma; experiment: NCI tumour cell line growth inhibition, 48 h
Experimental readout: TGI

Request: Form field: reported TGI of Cc1cc(C)c2cc(N)c(Cl)nc2n1
Response: > 100 µM

Request: Form field: reported TGI of c1ccc(NNN2NC(c3ccccc3)C2c2ccccc2)cc1 (stereo unspecified)
Response: > 100 µM

Request: Form field: reported TGI of O=C(N=C1N(c2ccccc2)C(=O)C(=O)N1c1ccccc1)c1ccccc1
Response: 36.9 µM

Request: Form field: reported TGI of CCCCCCc1nn2c(-c3ccncc3)nnc2s1
Response: > 10 µM

Request: Form field: reported TGI of O=C1CC(c2ccccc2Cl)Oc2ccccc21 (stereo unspecified)
Response: 59.9 µM

Request: Form field: reported TGI of COC(=O)C12CCC(C(F)(F)C1=O)C2(C)C (stereo unspecified)
Response: > 100 µM

Request: Form field: reported TGI of Cc1cccc(C)c1NC(=O)/C(Cc1nc2ccc([N+](=O)[O-])cc2[nH]c1=O)=N\NC(N)=O
Response: > 100 µM

Request: Form field: reported TGI of Cn1ccnc1Sc1ccc(/C=N/NC(=O)c2ccccc2[N+](=O)[O-])cc1[N+](=O)[O-]
Response: > 100 µM

Request: Form field: reported TGI of Cn1cc(NC(=O)[C@H]2CCC(N)=N2)cc1C(=O)NCCC(=N)N
Response: > 100 µM

Request: Form field: reported TGI of O=C1OC2C(O)COC2(O)C1(O)Cc1c[nH]c2ccccc12 (stereo unspecified)
Response: > 100 µM

Request: Form field: reported TGI of NNC1=N/C(=C\c2ccccc2O)C(=O)N1
Response: > 100 µM

Request: Form field: reported TGI of N=C(N)SCCc1ccncc1
Response: > 100 µM

Request: Form field: reported TGI of Brc1ccc(N=NN2CCCC2)cc1
Response: > 100 µM

Request: Form field: reported TGI of COC(=O)C1=C2SCc3ccc(cc3)CSC3=C(C(=O)OC)SC(=C(S2)S1)S3
Response: > 100 µM

Request: Form field: reported TGI of O=Cc1cc2c(s1)C(=O)c1sccc1C2=O
Response: 0.37 µM

Request: Form field: reported TGI of CCN(CC)c1ccc2cc(-c3nc(-c4ccccc4)n[nH]3)c(=O)oc2c1
Response: > 100 µM

Request: Form field: reported TGI of CC(C)c1cc(C(F)(F)F)nc(NNc2nc(C(C)C)cc(C(F)(F)F)n2)n1
Response: > 100 µM

Request: Form field: reported TGI of CN1CCN(CC(=O)Nc2cccc3ccccc23)CC1
Response: > 100 µM

Request: Form field: reported TGI of O[N+]1=CC=CCC1=S.On1ccccc1=S.[Zn]
Response: 3.92 µM

Request: Form field: reported TGI of CCCCOC(=O)NC(Nc1ccc(S(N)(=O)=O)cc1)(C(F)(F)F)C(F)(F)F
Response: > 100 µM

Request: Form field: reported TGI of O=C(O)C1CCCN1C(=O)c1cc(Cl)ccn1 (stereo unspecified)
Response: > 100 µM

Request: Form field: reported TGI of CCc1n[nH]c(=O)n1NC(=O)CCCC(=O)O
Response: > 100 µM

Request: Form field: reported TGI of COC(=O)C1=C(O)[C@H](C(=O)OC)C2(O)[C@@H](C(=O)OC)[C@H]1C[C@@H](c1ccc(OC(=O)n3ccnc3)cc1)[C@@H]2C(=O)OC
Response: > 50 µM

Request: Form field: reported TGI of Clc1ccc(/C=C2\CCCC3C2=Nc2ccccc2NC3c2ccc(Cl)cc2)cc1 (stereo unspecified)
Response: > 64.8 µM

Request: Form field: reported TGI of COC(=O)CCCc1c(-c2[nH]c3ccccc3c2CCCC(=O)OC)[nH]c2ccccc12
Response: > 100 µM

Request: Form field: reported TGI of Cc1cc(C)c2c(=O)n(CN3CCC(C#N)(c4ccccc4)CC3)sc2n1
Response: > 100 µM

* * *

Please go through the items and note down their TGI.
tested on: NCI-H460 lung; assay: NCI tumour cell line growth inhibition, 48 h

Request: Can you look up TGI on NCI-H460 lung for Cc1nc2cc(-n3c(-c4ccc(F)cc4)nc4ccccc4c3=O)ccc2n1Cc1ccccc1 ?
Response: 4.09 µM

Request: Can you look up TGI on NCI-H460 lung for Cc1ccc(C2c3c(n(C)c(=O)n(C)c3=O)OC(N(C)C)(N(C)C)C2(F)F)cc1 (stereo unspecified) ?
Response: > 100 µM

Request: Can you look up TGI on NCI-H460 lung for COc1cc(O)c2c(=O)c(OC)c(-c3ccc(OC)c(OC)c3)oc2c1.[Co] ?
Response: > 100 µM

Request: Can you look up TGI on NCI-H460 lung for O=C(O)C1CCCN1C(=O)c1cc(Cl)ccn1 (stereo unspecified) ?
Response: > 100 µM

Request: Can you look up TGI on NCI-H460 lung for N#CC1(C#N)C2=C(CCCC2)NC(c2ccc(Br)cc2)C1(C#N)C#N (stereo unspecified) ?
Response: 63.6 µM

Request: Can you look up TGI on NCI-H460 lung for COC(=O)C1=C2SCc3ccc(cc3)CSC3=C(C(=O)OC)SC(=C(S2)S1)S3 ?
Response: > 100 µM

Request: Can you look up TGI on NCI-H460 lung for CC(C)(C)OC(=O)Nc1nnc(S(N)(=O)=O)s1 ?
Response: > 100 µM

Request: Can you look up TGI on NCI-H460 lung for CCCCNc1nc(N)nc(Nc2ccc(Br)cc2)c1N=O ?
Response: > 100 µM

Request: Can you look up TGI on NCI-H460 lung for NC(N)=C1CN(C2CCCCC2)C(=O)NC1=O ?
Response: > 100 µM

Request: Can you look up TGI on NCI-H460 lung for O=C1c2ccccc2CCC1C(O)(C(F)(F)F)C(F)(F)F (stereo unspecified) ?
Response: > 100 µM

Request: Can you look up TGI on NCI-H460 lung for O=C1OCC2=C1C(c1cccc(Cl)c1)c1cc3c(cc1N2CCO)OCO3 (stereo unspecified) ?
Response: > 35.3 µM

* * *

system: MOLT-4 leukemia; assay: NCI tumour cell line growth inhibition, 48 h
Experimental readout: TGI

Request: Form field: reported TGI of O=C(N=C1N(c2ccccc2)C(=O)C(=O)N1c1ccccc1)c1ccccc1
Response: > 100 µM

Request: Form field: reported TGI of CCOc1cc2c[n+](C)c3c4cc(OC)c(OC)cc4ccc3c2cc1OC
Response: > 100 µM

Request: Form field: reported TGI of COC(=O)C1CC2C=CC1N(C(=O)OCc1ccccc1)C2 (stereo unspecified)
Response: > 100 µM

Request: Form field: reported TGI of O=C1c2ccccc2CCC1C(O)(C(F)(F)F)C(F)(F)F (stereo unspecified)
Response: > 100 µM

Request: Form field: reported TGI of Cc1ccc(/C=C2\N=C(N3CCOCC3)NC2=O)cc1
Response: > 100 µM

Request: Form field: reported TGI of C[N+](C)=C/C=C(\Cl)c1ccc2ccccc2c1
Response: 3.67 µM

Request: Form field: reported TGI of CN1CCN(CC(=O)Nc2cccc3ccccc23)CC1
Response: > 100 µM

Request: Form field: reported TGI of CC(=O)OC[C@]1(C)C=C2C(=O)[C@](C)(O)C3(CC3)C(C)=C2[C@H]1OC(=O)N(C)CCN(C)C(=O)OC(C)(C)C
Response: > 33.3 µM

Request: Form field: reported TGI of CO[C@H](C(=O)[C@@H](O)[C@@H](C)O)[C@@H]1Cc2cc3cc(O[C@H]4C[C@@H](O[C@H]5C[C@@H](O)[C@H](O)C(C)O5)[C@H](O)C(C)(O)O4)cc(O)c3c(O)c2C(=O)[C@H]1O[C@H]1C[C@@H](O[C@H]2C[C@@H](O[C@H]3C[C@@H](OC)[C@H](O)C(C)O3)[C@@H](O)C(C)O2)[C@H](O)C(C)O1 (stereo partly specified)
Response: > 16.8 µM

Request: Form field: reported TGI of CN(C)CCNc1ccc2c(=O)n(CCN(C)C)c(=O)n3c4ccccc4c(=O)c1c23
Response: < 0.0201 µM

Request: Form field: reported TGI of COc1ccc(C2C=C(c3ccccc3)Nc3nnnn32)cc1 (stereo unspecified)
Response: > 100 µM

Request: Form field: reported TGI of COC(=O)C(N)CSC(c1ccccc1)(c1ccccc1)c1ccccc1 (stereo unspecified)
Response: > 100 µM

Request: Form field: reported TGI of COC(=O)C1=C2SCc3ccc(cc3)CSC3=C(C(=O)OC)SC(=C(S2)S1)S3
Response: > 100 µM

Request: Form field: reported TGI of CNC(=O)C(C)C1C(=O)/C(=C(O)/C=C\C(C)=C\C(C)C2OC3(C)OC(C=CC34CO4)C2C)C(=O)N1C1CCC(O)C(C)O1 (stereo unspecified)
Response: > 100 µM

Request: Form field: reported TGI of COc1cc(OC)cc(C(=O)NC2=C(Cl)C(=O)c3ccccc3C2=O)c1
Response: 6.12 µM

Request: Form field: reported TGI of CC(C)c1cc(C(F)(F)F)nc(NNc2nc(C(C)C)cc(C(F)(F)F)n2)n1
Response: > 100 µM

Request: Form field: reported TGI of CC(=O)Oc1ccc(O)c2c1CCCC2
Response: 43.5 µM

Request: Form field: reported TGI of O=C(CC1(O)C(=O)Nc2c(Cl)cc(Cl)cc21)c1ccco1 (stereo unspecified)
Response: 59.1 µM

Request: Form field: reported TGI of COC(=O)CCCc1c(-c2[nH]c3ccccc3c2CCCC(=O)OC)[nH]c2ccccc12
Response: > 100 µM

Request: Form field: reported TGI of CCCCNc1nc(N)nc(Nc2ccc(Br)cc2)c1N=O
Response: > 100 µM

Request: Form field: reported TGI of Cn1cnc([N+](=O)[O-])c1[Se]c1ncnc2nc[nH]c12
Response: 22 µM

Request: Form field: reported TGI of CN(C(=O)CC(=O)CP(=O)(c1ccccc1)c1ccccc1)c1ccccc1
Response: > 100 µM

Request: Form field: reported TGI of COc1cc(/C=N/c2nncs2)ccc1O
Response: > 100 µM

Request: Form field: reported TGI of COc1ccc2c(c1)C(=O)c1c-2n(CCCNCCO)c(=O)c2ccccc12
Response: 5.28 µM

Request: Form field: reported TGI of CC1(CO)OC(n2cnc3cncnc32)CC1O (stereo unspecified)
Response: > 100 µM

Request: Form field: reported TGI of COC(=O)c1cc2c3c(c1)Oc1cc(C(=O)OC)cc4c1C3c1c(cc(C(=O)OC)cc1O4)O2
Response: > 100 µM

The values you see were collected from PubChem BioAssay (NCI).
